target: GAβ-dependent amyloid fibril formation (Human Aβ1-40 + GM1-containing liposome) (Homo sapiens, UniProt P05067); construct: Human Aβ1-40 (cat. #4307-v, prepared by Peptide Institute); purchased Peptide Institute 4307-v; experiment: Thioflavin T (ThT) assay of GAβ-dependent amyloid fibril formation (Aβ1-40 with GM1-containing liposome); format: biochemical; conditions: inhibition rate against amyloid fibril formation, final concentration of the compound 25 μM; read-out: Inhibitory activity ABC evaluation
Sequence (P05067 672-711 limits assumed): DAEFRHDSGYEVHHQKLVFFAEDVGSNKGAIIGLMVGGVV
Recorded measurements of inhibition at 25 µM, one per entry

Known inhibition at 25 µM results, listed for orientation:
Tell me inhibition at 25 µM reported for O=C1CC(c2nc(-c3ccccc3)no2)CN1c1ccc(Cl)cc1 (centres unmarked)
40 to 80%

Tell me inhibition at 25 µM reported for O=C(N[C@@H](CO)c1nc(-c2cc(Cl)c(Cl)[nH]2)no1)c1ccc(F)cc1
40 to 80%

***
Tell me inhibition at 25 µM reported for O=C(N[C@@H](CO)c1nc(-c2ccc(F)cc2Cl)no1)c1ccc(F)cc1
< 40%

Tell me inhibition at 25 µM reported for O=C(N[C@@H](CO)c1nc(-c2ccc(C(F)(F)F)cc2)no1)c1ccc2ccccc2c1
40 to 80%

---

Target: GAβ-dependent amyloid fibril formation (Human Aβ1-40 + GM1-containing liposome) (Homo sapiens)
Construct: Human Aβ1-40 (cat. #4307-v, prepared by Peptide Institute); purchased Peptide Institute 4307-v
Experiment: Thioflavin T (ThT) assay of GAβ-dependent amyloid fibril formation (Aβ1-40 with GM1-containing liposome)
Type: biochemical
Conditions: inhibition rate against amyloid fibril formation, final concentration of the compound 25 μM; read-out: Inhibitory activity ABC evaluation
Protocol: <3. Evaluation of the Compounds Based on the Inhibitory Activity Against Amyloid Fibril Formation in Thioflabin T (ThT) Assay> Inhibitory activity against GAβ-dependent amyloid fibril formation of the above compounds 1 to 133 and 142 to 267 were evaluated in ThT assay. (1) Preparation of Aβ Solution […] The fluorescence intensity of ThT indicates the degree of amyloid fibrils formation. […]
Endpoint: inhibition at 25 µM

Tell me inhibition at 25 µM reported for CCN(CC)CCOc1ccc(C(=O)N[C@@H](CO)c2nc(-c3ccc(OC(F)(F)F)cc3)no2)cc1 [Compound 171]
< 40%

Tell me inhibition at 25 µM reported for O=C1C[C@@H](c2nc(-c3ccc(OC(F)(F)F)cc3)no2)N(C(=O)c2ccc(Cl)cc2)C1 [Compound 57]
< 40%

Tell me inhibition at 25 µM reported for O=C(N[C@@H](CO)c1nc(-c2c[nH]c3ccccc23)no1)c1ccc(F)cc1 [Compound 211]
> 80%

Tell me inhibition at 25 µM reported for N#Cc1ccc(N2CC(c3nc(-c4ccc(O)cc4)no3)CC2=O)cc1 (stereo not drawn) [Compound 79]
< 40%

Tell me inhibition at 25 µM reported for O=C1CC(c2nc(-c3ccc(OC(F)F)cc3)no2)CN1c1ccc(Cl)cn1 (stereo not drawn) [Compound 62]
40 to 80%

Tell me inhibition at 25 µM reported for CN(C(=O)c1ccc(Cl)cc1)C(C)(C)c1nc(-c2ccc(OC(F)(F)F)cc2)no1 [Compound 21]
< 40%

Tell me inhibition at 25 µM reported for O=C1CC(c2nnc(-c3ccc(OC(F)(F)F)cc3)[nH]2)CN1c1ccc(Cl)cc1 (stereo not drawn) [Compound 123]
< 40%

---

target: GAβ-dependent amyloid fibril formation (Human Aβ1-40 + GM1-containing liposome) (Homo sapiens); construct: Human Aβ1-40 (cat. #4307-v, prepared by Peptide Institute); purchased Peptide Institute 4307-v; experiment: Thioflavin T (ThT) assay of GAβ-dependent amyloid fibril formation (Aβ1-40 with GM1-containing liposome); assay type: biochemical; conditions: inhibition rate against amyloid fibril formation, final concentration of the compound 25 μM; read-out: Inhibitory activity ABC evaluation
Endpoint: inhibition at 25 µM

Known inhibition at 25 µM results, listed for orientation:
Tell me inhibition at 25 µM reported for O=C(N[C@@H](CO)c1nc(-c2ccc(C(F)(F)F)s2)no1)c1ccc(F)cc1 [Compound 210]
> 80%

Tell me inhibition at 25 µM reported for O=C(N[C@@H](CO)c1nc(-c2ccc(OCC(F)(F)F)cc2)no1)c1ccc(F)cc1 [Compound 216]
< 40%

***
Tell me inhibition at 25 µM reported for O=C1CC(c2nc(-c3ccc(OC(F)(F)F)cc3)no2)CN1c1cccc(Cl)c1 (centres unmarked) [Compound 27]
40 to 80%

Tell me inhibition at 25 µM reported for O=C(c1c[nH]c2ccccc12)N1C[C@H](O)C[C@H]1c1nc(-c2ccc(OC(F)(F)F)cc2)no1 [Compound 47]
< 40%

Tell me inhibition at 25 µM reported for O=C(N[C@@H](CO)c1nc(-c2ccc(O)cc2)no1)c1ccccc1 [Compound 146]
> 80%

Tell me inhibition at 25 µM reported for O=C1CC(CO)(c2nc(-c3ccc(O)c(F)c3)no2)CN1c1ccc(Cl)cc1 (centres unmarked) [Compound 90]
40 to 80%

Tell me inhibition at 25 µM reported for O=C(Nc1nc(-c2ccc(C(F)(F)F)cc2)no1)c1ccccc1 [Compound 174]
< 40%

Tell me inhibition at 25 µM reported for N[C@@H](Cc1c[nH]c2ccccc12)C(=O)N[C@@H](CO)c1nc(-c2ccc(C(F)(F)F)cc2)no1 [Compound 241]
< 40%

---

target: GAβ-dependent amyloid fibril formation (Human Aβ1-40 + GM1-containing liposome) (Homo sapiens, UniProt P05067); construct: Human Aβ1-40 (cat. #4307-v, prepared by Peptide Institute); purchased Peptide Institute 4307-v; assay: Thioflavin T (ThT) assay of GAβ-dependent amyloid fibril formation (Aβ1-40 with GM1-containing liposome); format: biochemical; details: inhibition rate against amyloid fibril formation, final concentration of the compound 25 μM; read-out: Inhibitory activity ABC evaluation
Endpoint: inhibition at 25 µM

Tell me inhibition at 25 µM reported for CN(C)C(=O)C[C@H](NC(=O)c1ccc(Cl)cc1)c1nc(-c2ccc(OC(F)(F)F)cc2)no1 [Compound 87]
40 to 80%

Tell me inhibition at 25 µM reported for O=C1CC(c2nc(-c3ccc(OC(F)(F)F)cc3)no2)CN1c1ccc(Cl)nc1 (centres unmarked) [Compound 48]
40 to 80%

Tell me inhibition at 25 µM reported for O=C(N[C@@H](CO)c1nc(-c2cccc(C(F)(F)F)c2)no1)c1cn2ccccc2n1 [Compound 244]
< 40%

Tell me inhibition at 25 µM reported for O=C(N[C@@H](CO)c1nc(-c2ccc(C(F)(F)F)cc2)no1)c1cc(F)cc(F)c1 [Compound 196]
> 80%

Tell me inhibition at 25 µM reported for C[Si](C)(C)c1ccc(-c2noc([C@H](CO)NC(=O)c3ccc(F)cc3)n2)cc1 [Compound 224]
> 80%

Tell me inhibition at 25 µM reported for O=C(N[C@@H](CO)c1nc(-c2c[nH]c3ncccc23)no1)c1ccc(F)cc1 [Compound 229]
40 to 80%

Tell me inhibition at 25 µM reported for O=C(Nc1ccc(Cl)cc1)NC1(c2nc(-c3ccc(OC(F)(F)F)cc3)no2)CCCC1 [Compound 36]
< 40%

Tell me inhibition at 25 µM reported for OC[C@H](NC(=S)Nc1ccc(Cl)cc1)c1nc(-c2ccc(OC(F)(F)F)cc2)no1 [Compound 97]
40 to 80%

***
Tell me inhibition at 25 µM reported for O=C(c1ccc(Cl)cc1)N1CC[C@H](O)[C@H]1c1nc(-c2ccc(OC(F)(F)F)cc2)no1 [Compound 131]
40 to 80%

---

Recorded measurements of inhibition at 25 µM, one per entry
biological target: GAβ-dependent amyloid fibril formation (Human Aβ1-40 + GM1-containing liposome) (Homo sapiens); construct: Human Aβ1-40 (cat. #4307-v, prepared by Peptide Institute); purchased Peptide Institute 4307-v; assay: Thioflavin T (ThT) assay of GAβ-dependent amyloid fibril formation (Aβ1-40 with GM1-containing liposome); type: biochemical; conditions: inhibition rate against amyloid fibril formation, final concentration of the compound 25 μM; read-out: Inhibitory activity ABC evaluation

Known inhibition at 25 µM results, listed for orientation:
Tell me inhibition at 25 µM reported for CNC(=O)C[C@H](NC(=O)c1ccc(Cl)cc1)c1nc(-c2ccc(OC(F)(F)F)cc2)no1 [Compound 88]
< 40%

Tell me inhibition at 25 µM reported for O=C(N[C@@H](CO)c1nc(-c2ccc(C(F)(F)F)cc2)no1)c1ccc(Cl)cc1F [Compound 236]
> 80%

Tell me inhibition at 25 µM reported for O=C(N[C@@H](CO)c1nc(-c2cc3cc(F)ccc3[nH]2)no1)c1ccc(F)cc1 [Compound 267]
> 80%

Tell me inhibition at 25 µM reported for COCCCNC(=O)c1ccc(-c2noc([C@H](CO)NC(=O)c3ccc(F)cc3)n2)cc1 [Compound 147]
40 to 80%

Tell me inhibition at 25 µM reported for CCCN(C(=O)Cc1nc(-c2ccc(OC)cc2)no1)c1cccc(Cl)c1 [Compound 1]
< 40%

***
Tell me inhibition at 25 µM reported for O=C(c1ccc(Cl)cc1)N1C[C@@H](O)C[C@H]1c1nc(-c2ccc(OC(F)(F)F)cc2)no1 [Compound 56]
< 40%

Tell me inhibition at 25 µM reported for NC(Cc1c[nH]c2ccccc12)c1nc(-c2ccc3c(c2)OC(F)(F)O3)no1 (stereo not shown) [Compound 40]
> 80%

Tell me inhibition at 25 µM reported for O=C(NC1(c2nc(-c3ccc(OC(F)(F)F)cc3)no2)CCCC1)c1ccc(F)cc1 [Compound 30]
< 40%

Tell me inhibition at 25 µM reported for O=S(=O)(N[C@@H](CO)c1nc(-c2ccc(OC(F)(F)F)cc2)no1)c1cccc(Cl)c1 [Compound 91]
40 to 80%

Tell me inhibition at 25 µM reported for O=C(N[C@H](CO)c1nc(-c2ccc(C(F)(F)F)cc2)no1)c1ccccc1 [Compound 213]
< 40%
